Target or system UniProt P51813; metric IC50; compiled from varied reports.

Recorded result, C=CC(=O)N[C@@H]1CC[C@H](C)N(c2n[nH]c3nccc(-c4ccc(CNC(=O)c5cc(C(C)(C)C)on5)c(F)c4)c23)C1 , IC50: 0.445 µM

Recorded result, CCC(=O)N1CCC[C@@H](Nc2nc(Nc3ccc4c(c3)OCCOCCOCCO4)nc3[nH]cnc23)C1 , IC50: 0.0196 µM

Recorded result, C[C@H]1CC[C@@H](Nc2n[nH]c3nccc(-c4ccc(CNC(=O)c5noc(C(C)(C)C)n5)c(F)c4)c23)CN1CC#N , IC50: 2.93 µM

Recorded result, CC(C)(C)c1nc(C(=O)NCc2ccc(-c3ccnc4[nH]nc(N[C@H]5CCN(C=O)C5)c34)cc2F)no1 , IC50: 3.34 µM

Recorded result, C=CC(=O)N1CC[C@@H](Nc2n[nH]c3nccc(-c4ccc(CNC(=O)c5coc(C(C)(C)C)n5)c(F)c4)c23)C1 , IC50: 0.107 µM

Recorded result, C=CC(=O)N1CCCC[C@@H](n2c(NC(=O)c3ccnc(C)c3)nc3cccc(OC4CCN(C(C)=O)CC4)c32)C1 , IC50: ≤ 0.01 µM

Recorded result, CC(C)(C)c1ccc(C(=O)NCc2ccc(-c3ccnc4[nH]nc(N[C@@H]5CCNC5)c34)cc2F)cc1 , IC50: > 10 µM
